TEST DETAILS: protein stability index of a GFP-peptide fusion (yeast GPS) (PSI 1-4); higher = more stable; sorted into four equal gates, so the index is relative within each strain
ASSAY CONDITIONS: san1∆
# label = bin(measured protein stability index), where bins are group A = under 2, group B = from 2 up to 3, group C = 3 and over

macromolecule_sequence="CRNDAVNWLAYTYLYVR [BRR2]" label="group C"
macromolecule_sequence="AKRVENFNSSAPIADDN [DSN1]" label="group B"
macromolecule_sequence="AFNQVEIRPEMLGHYLG [RPS15]" label="group C"
macromolecule_sequence="SRSTDNFHNSKKRMNSN [RRI1]" label="group B"
macromolecule_sequence="GFETSKNIKIIMATNRL [RPT6]" label="group B"
macromolecule_sequence="GSAINHHRIFDSSAHFK [YMR129W/POM152]" label="group B"
macromolecule_sequence="LSQPVSASKHEYSDNFP [SIR4]" label="group B"
macromolecule_sequence="DDYKDLTCSLYELYINK [IRR1]" label="group C"
macromolecule_sequence="LGRLVKAGKITTIEEIF [RPS2]" label="group B"
macromolecule_sequence="RRLHDENLMVQRTCLMT [YCS4]" label="group B"
macromolecule_sequence="QDDDDYVDTATAKRKSR [IRR1]" label="group B"
macromolecule_sequence="KDHLLLEEEFVSNSEIL [RPT2]" label="group B"
macromolecule_sequence="LNDRFQTLSSHLEALQP [PGD1]" label="group B"
macromolecule_sequence="KLYKTPIPIPAFADRLG [PRE10]" label="group A"
macromolecule_sequence="SIKSKVVDHHVENELLQ [RRP42]" label="group B"
macromolecule_sequence="QYTQRLSKLEKALDRHE [SRP68]" label="group B"
macromolecule_sequence="TEKEPVPAVVDDPLENM [SNF6]" label="group B"
macromolecule_sequence="SQKTKTIQSDLNLSLHK [SMC2]" label="group B"
macromolecule_sequence="EVNSKKKNKRALPNIEN [BRR2]" label="group C"
macromolecule_sequence="TKNLSILTSKVNAIKNE [DSN1]" label="group B"
macromolecule_sequence="TVPRIVQLLSKSHNAHV [RPN2]" label="group B"
macromolecule_sequence="VSNRVAAPARAGAVAPE [RPP0]" label="group B"
macromolecule_sequence="EEAAEESDDDMGFGLFD [RPP1B]" label="group C"
macromolecule_sequence="DSLTQNNNNAPIIIYGT [YOR098C/NUP1]" label="group B"
macromolecule_sequence="RRNLRYGDRMKLAKNLQ [RPO31]" label="group C"
macromolecule_sequence="VAIGNTYGFLTPNLWAE [RPS2]" label="group B"
macromolecule_sequence="IKRMAIRNIVEAAAVRD [RPS26A]" label="group A"
macromolecule_sequence="LINLKISPLMKSQYNMV [SRB8]" label="group B"
macromolecule_sequence="LVRRLSDIKQGYTQHGG [PRE9]" label="group B"
macromolecule_sequence="TIETFNEAALVVNITHH [RPB5]" label="group A"
macromolecule_sequence="RALKVRNAQAQREAAAE [RPS6A]" label="group B"
macromolecule_sequence="YLLASLKDSKDFDESLK [RPN9]" label="group B"
macromolecule_sequence="MSTFIFPGDSFPVDPTT [RRP40]" label="group B"
macromolecule_sequence="VSGDLNPIHVSRHFASY [FAS1]" label="group B"
macromolecule_sequence="TAFQTQRTAQDRVQQDS [YML031W/NDC1]" label="group C"
macromolecule_sequence="KKSLEEDDEFEDFPIDT [SEM1]" label="group B"
macromolecule_sequence="PTLFDLAFNYITYDKQE [SRP68]" label="group A"
macromolecule_sequence="ATDPVAAKPDNLANFSN [SWP82]" label="group C"
macromolecule_sequence="ATLPYIKQDIPIVIIFR [RPB2]" label="group A"
macromolecule_sequence="KTSKDIAVLRSKEWFQL [FAS1]" label="group A"
macromolecule_sequence="LRQQYEIELKKLPKVYK [SWI1]" label="group B"
macromolecule_sequence="DEDKNFPRSRSRSRSSI [ESC2]" label="group C"
macromolecule_sequence="TAAFTAMICEAKGLIEN [YJR042W/NUP85]" label="group B"
macromolecule_sequence="DSVFSFGPKKENRKKDE [YLR335W/NUP2]" label="group B"
macromolecule_sequence="EERERKDQYVPEVSALD [RPS17A]" label="group C"
macromolecule_sequence="YDGVERVSLQDIKDFAD [QCR2]" label="group B"
macromolecule_sequence="EGNQIIVFVHSRKETSR [BRR2]" label="group A"
macromolecule_sequence="RVVRPKSLDAETEAEED [RPO21]" label="group A"
macromolecule_sequence="RARLKGKEGRIRGNLMG [RPO21]" label="group C"
macromolecule_sequence="SAHQSPIMQTQMPLNSN [SNF2]" label="group B"
macromolecule_sequence="YSLHQIRKDPNNLSNQL [CSE2]" label="group B"
macromolecule_sequence="LPYLSDTCAVSFDAVSD [YJR042W/NUP85]" label="group B"
macromolecule_sequence="MKRMVAQWERSKLSQEF [SNF12]" label="group C"
